Source: ChEMBL document CHEMBL4118248

# System Tested: 80S Ribosome
# Assay Text: Binding affinity to 80S ribosome in human HuH7 cells assessed as inhibition of PCSK9 mRNA translation after overnight incubation by ELISA
# Type: cell-based
# Test Settings: huh-7
pIC50: −log10 of the molar value.
Recorded Endpoint: pIC50

1) Cc1ccc2nnn(-c3ccc(C(=O)N(c4ncccc4Cl)[C@@H]4CCCNC4)cc3)c2n1: 6.05
2) O=C(c1ccc(-n2nnc3cccnc32)nc1)N(c1ncccc1Cl)[C@@H]1CCCNC1: 5.03
3) O=C(c1ccc(-c2cnn3cccnc23)cc1)N(c1nccc2ccccc12)[C@@H]1CCCNC1: 5.89
4) O=C(c1ccc(-n2nnc3cccnc32)cn1)N(c1ncccc1Cl)[C@@H]1CCCNC1: 5.84
5) CN(C)c1cncc(-c2ccc(C(=O)N(c3ncccc3Cl)[C@@H]3CCCNC3)cc2)n1: 5.53
6) Cc1cncc(-c2ccc(C(=O)N(c3ncccc3Cl)[C@@H]3CCCNC3)cc2)n1: 5.55
7) COc1ccc(CCC(=O)N(c2nccc3ccccc23)[C@@H]2CCCNC2)cc1: 5.08
8) O=C(c1ccc(-n2nnc3cccnc32)cc1)N(c1nccc2ccccc12)[C@@H]1CCCNC1: 6.05
9) CNc1cncc(-c2ccc(C(=O)N(c3ncccc3Cl)[C@@H]3CCCNC3)cc2)n1: 5.51
